# assayedSystem: UniProt:P12644
# Sequence (P12644 293-408): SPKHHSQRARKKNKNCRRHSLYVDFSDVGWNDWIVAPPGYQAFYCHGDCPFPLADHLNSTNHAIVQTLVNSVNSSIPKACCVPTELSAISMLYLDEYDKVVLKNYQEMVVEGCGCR
# measurementDescription: ATDC5 bioassay with rhBMP-4 stimulation instead of rhBMP-2 (ALP)
# Type: cell-based, mouse
# experimentalSetup: 2.5 μM and 5 μM, ATDC5 cells
valueKind: effect on ALP production induced by BMP-4 compared with BMP-2

{"columns": ["mol", "valueMeasured"],
 "data": [
  ["O=C(Nc1cccc(C(F)(F)F)c1)c1ccc([N+](=O)[O-])o1", "same effect"],
  ["COC(=O)c1sccc1N/N=C(\\C#N)S(=O)(=O)c1cccs1", "same effect"]
]}

###

# assayedSystem: BMP-2 (Homo sapiens, UniProt P12643)
# Sequence (P12643 283-396): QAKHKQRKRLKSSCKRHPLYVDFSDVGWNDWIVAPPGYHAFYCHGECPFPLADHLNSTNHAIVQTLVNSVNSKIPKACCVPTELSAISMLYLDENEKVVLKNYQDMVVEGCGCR
# measurementDescription: ATDC5 cell based HTS bioassay: ALP production stimulated by BMP-2 and heparin
# experimentalSetup: inhibition of BMP-2-stimulated ALP in ATDC5 cells, 48 hours, tested at 0.62-10 μM
Could you mark each record TRUE if its IC50 falls strictly under 3 µM, and FALSE if it equals or exceeds it?

I wonder whether O=C1c2cccc3cc([N+](=O)[O-])cc(c23)C(=O)N1c1ccc(S(=O)(=O)Nc2ccc(C(F)(F)F)cc2)cc1 [SM4] has IC50 below 3 µM. Can you tell?
FALSE

I wonder whether O=C(Nc1cccc(C(F)(F)F)c1)c1ccc([N+](=O)[O-])o1 [SM6] has IC50 below 3 µM. Can you tell?
FALSE

I wonder whether CS(=O)(=O)c1noc(-c2ccc(Cl)cc2)c1C#N [SM9] has IC50 below 3 µM. Can you tell?
FALSE

I wonder whether N#Cc1c(O)nsc1Nc1ccccc1C(F)(F)F [SM7] has IC50 below 3 µM. Can you tell?
TRUE

I wonder whether COC(=O)c1sccc1N/N=C(\C#N)S(=O)(=O)c1cccs1 [SM1] has IC50 below 3 µM. Can you tell?
TRUE

I wonder whether c1ccc(C2=NNC(c3ccccc3)=NN2)cc1 [SM2] has IC50 below 3 µM. Can you tell?
FALSE

I wonder whether CC(=O)NC(=O)CCSc1ccccc1C(=O)NC(C)=O [SM5] has IC50 below 3 µM. Can you tell?
FALSE

I wonder whether C/C(=N\NC(=S)NC(C)(C)C)c1ccc(Oc2c(Cl)cncc2Cl)cc1 [SM8] has IC50 below 3 µM. Can you tell?
TRUE

I wonder whether CCOC(=O)c1c(NC(=O)c2ccc([N+](=O)[O-])o2)nc(SC)n1Cc1cccs1 [SM3] has IC50 below 3 µM. Can you tell?
TRUE
